Tested on: A549 human lung adenocarcinoma cells
Experiment: MTT cytotoxicity assay, A549 cells
Type: cell-based
Details: mean ± SD
Procedure: A549 human lung adenocarcinoma and L929 mouse fibroblast cell lines were obtained from American Type Culture Collection (ATCC) (Manassas, VA, USA). Both cell lines were cultured, and drug treatments were carried out as previously reported. MTT assay was conducted as previously explained in the literature with small modifications. Cisplatin was used as a positive control. The assay was performed in triplicate. IC50 data (µM) were expressed as mean ± SD.
parameter measured: pIC50
Reminder that pIC50 means the negative base-10 logarithm of the concentration expressed in mol/L.

Task item: If you can, please state the reported pIC50 value of N.N.[Cl][Pt][Cl] [Cisplatin, reference compound] .
Reply: 4.64

====

parameter measured: melting point

Task item: If you can, please state the reported melting point value of Cn1cc(C=NNC(=O)Cc2c[nH]c3ccccc23)c2ccccc21 .
Reply: 221 to 224 °C

Task item: If you can, please state the reported melting point value of O=C(Cc1c[nH]c2ccccc12)NNC(=S)Nc1ccc(-n2cccn2)cc1 .
Reply: 196 to 198 °C

Task item: If you can, please state the reported melting point value of O=C(Cc1c[nH]c2ccccc12)NNC(=S)Nc1ccc(Br)cc1 .
Reply: 187 to 189 °C

Task item: If you can, please state the reported melting point value of O=C(Cc1c[nH]c2ccccc12)NN=Cc1ccc(N2CCCCC2)cc1 .
Reply: 265 to 266 °C

Task item: If you can, please state the reported melting point value of CS(=O)(=O)c1ccc(C=NNC(=O)Cc2c[nH]c3ccccc23)cc1 .
Reply: 264 to 265 °C

Task item: If you can, please state the reported melting point value of O=C(Cc1c[nH]c2ccccc12)NNC(=S)Nc1ccc(OCc2ccccc2)cc1 .
Reply: 198 to 200 °C

Task item: If you can, please state the reported melting point value of O=C(Cc1c[nH]c2ccccc12)NNC(=S)Nc1ccc2c(c1)OCO2 .
Reply: 168 to 170 °C

Task item: If you can, please state the reported melting point value of O=C(Cc1c[nH]c2ccccc12)NN=Cc1ccc(OCCN2CCOCC2)cc1 .
Reply: 132 to 135 °C

Task item: If you can, please state the reported melting point value of CC(=NNC(=O)Cc1c[nH]c2ccccc12)c1ccc(S(C)(=O)=O)cc1 .
Reply: 204 to 205 °C

Task item: If you can, please state the reported melting point value of O=C(Cc1c[nH]c2ccccc12)NN=Cc1ccc(N2CCOCC2)cc1 .
Reply: 306 to 307 °C

Task item: If you can, please state the reported melting point value of N#Cc1ccc(NC(=S)NNC(=O)Cc2c[nH]c3ccccc23)cc1 .
Reply: 180 to 182 °C

Task item: If you can, please state the reported melting point value of CN1CCN(c2ccc(C=NNC(=O)Cc3c[nH]c4ccccc34)cc2)CC1 .
Reply: 218 to 220 °C

Task item: If you can, please state the reported melting point value of O=C(Cc1c[nH]c2ccccc12)NN=Cc1ccc(N2CCCC2)cc1 .
Reply: 302 to 303 °C

Task item: If you can, please state the reported melting point value of O=C(Cc1c[nH]c2ccccc12)NNC(=S)Nc1ccc(C(F)(F)F)cc1 .
Reply: 184 to 186 °C

Task item: If you can, please state the reported melting point value of O=C(Cc1c[nH]c2ccccc12)NNC(=S)Nc1ccc(S(=O)(=O)N2CCCCC2)cc1 .
Reply: 182 to 184 °C

Task item: If you can, please state the reported melting point value of CC(=NNC(=O)Cc1c[nH]c2ccccc12)c1ccc(N2CCOCC2)cc1 .
Reply: 198 to 199 °C

====

Molecular target: COX-2 (Ovis aries)
Construct: purchased Cayman
Sequence (P79208 17-603): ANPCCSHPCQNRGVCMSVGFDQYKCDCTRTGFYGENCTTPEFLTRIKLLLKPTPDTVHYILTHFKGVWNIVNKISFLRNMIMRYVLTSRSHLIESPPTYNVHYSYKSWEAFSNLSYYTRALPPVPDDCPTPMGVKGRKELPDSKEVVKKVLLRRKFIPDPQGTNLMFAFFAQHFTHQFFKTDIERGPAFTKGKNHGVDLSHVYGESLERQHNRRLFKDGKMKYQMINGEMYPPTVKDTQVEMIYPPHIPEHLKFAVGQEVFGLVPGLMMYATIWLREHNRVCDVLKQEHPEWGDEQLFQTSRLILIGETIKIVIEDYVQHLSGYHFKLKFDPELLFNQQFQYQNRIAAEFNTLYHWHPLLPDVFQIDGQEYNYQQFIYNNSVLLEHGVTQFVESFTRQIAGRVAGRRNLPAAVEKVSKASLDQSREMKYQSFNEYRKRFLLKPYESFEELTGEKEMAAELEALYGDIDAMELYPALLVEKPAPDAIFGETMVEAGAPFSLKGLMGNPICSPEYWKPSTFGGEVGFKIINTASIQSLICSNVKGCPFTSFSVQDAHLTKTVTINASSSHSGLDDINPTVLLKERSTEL
Experiment: COX (ovine) colorimetric inhibitor screening assay, COX-2
Format: biochemical
Conditions: ovine COX-2, colorimetric, triplicate, mean ± SD
Assignment: determine reported IC50 for the given compounds.
Lab book: enter the figure in µM, no units written.

Task item: If you can, please state the reported IC50 value of N#Cc1ccc(NC(=S)NNC(=O)Cc2c[nH]c3ccccc23)cc1 .
Reply: 56.5

Task item: If you can, please state the reported IC50 value of O=C(Cc1c[nH]c2ccccc12)NNC(=S)Nc1ccc(C(F)(F)F)cc1 .
Reply: 61.5

Task item: If you can, please state the reported IC50 value of O=C(Cc1c[nH]c2ccccc12)NNC(=S)Nc1ccc2c(c1)OCO2 .
Reply: 51.5

Task item: If you can, please state the reported IC50 value of O=C(Cc1c[nH]c2ccccc12)NNC(=S)Nc1ccc(Br)cc1 .
Reply: 76.5

Task item: If you can, please state the reported IC50 value of CC(=NNC(=O)Cc1c[nH]c2ccccc12)c1ccc(N2CCOCC2)cc1 .
Reply: 52.5

Task item: If you can, please state the reported IC50 value of O=C(Cc1c[nH]c2ccccc12)NN=Cc1ccc(OCCN2CCOCC2)cc1 .
Reply: 50.5

====

target: COX-1 (Ovis aries, UniProt P05979); construct: purchased Cayman; assay: COX (ovine) colorimetric inhibitor screening assay, COX-1; type: biochemical; conditions: ovine COX-1, colorimetric, triplicate, mean ± SD
parameter measured: log10 IC50 (log10 of the value in µM)
Quick note: numbers are log10 of IC50, with µM as the unit.

Task item: If you can, please state the reported log10 IC50 value of O=C(Cc1c[nH]c2ccccc12)NN=Cc1ccc(OCCN2CCOCC2)cc1 [Compound 3h] .
Reply: 1.59

Task item: If you can, please state the reported log10 IC50 value of O=C(Cc1c[nH]c2ccccc12)NN=Cc1ccc(N2CCOCC2)cc1 [Compound 3b] .
Reply: 0.95

Task item: If you can, please state the reported log10 IC50 value of CC(=NNC(=O)Cc1c[nH]c2ccccc12)c1ccc(S(C)(=O)=O)cc1 [Compound 3f] .
Reply: 1.97

Task item: If you can, please state the reported log10 IC50 value of O=C(Cc1c[nH]c2ccccc12)NNC(=S)Nc1ccc(Br)cc1 [Compound 4a] .
Reply: 1.00

Task item: If you can, please state the reported log10 IC50 value of Cn1cc(C=NNC(=O)Cc2c[nH]c3ccccc23)c2ccccc21 [Compound 3i] .
Reply: 1.49

Task item: If you can, please state the reported log10 IC50 value of O=C(Cc1c[nH]c2ccccc12)NN=Cc1ccc(N2CCCC2)cc1 [Compound 3a] .
Reply: 1.01

Task item: If you can, please state the reported log10 IC50 value of CC(=NNC(=O)Cc1c[nH]c2ccccc12)c1ccc(N2CCOCC2)cc1 [Compound 3g] .
Reply: 1.71

Task item: If you can, please state the reported log10 IC50 value of CN1CCN(c2ccc(C=NNC(=O)Cc3c[nH]c4ccccc34)cc2)CC1 [Compound 3d] .
Reply: 1.89

Task item: If you can, please state the reported log10 IC50 value of CS(=O)(=O)c1ccc(C=NNC(=O)Cc2c[nH]c3ccccc23)cc1 [Compound 3e] .
Reply: 1.92

====

Biological target: COX-1 (Ovis aries)
Construct: purchased Cayman
Sequence (P05979 25-600): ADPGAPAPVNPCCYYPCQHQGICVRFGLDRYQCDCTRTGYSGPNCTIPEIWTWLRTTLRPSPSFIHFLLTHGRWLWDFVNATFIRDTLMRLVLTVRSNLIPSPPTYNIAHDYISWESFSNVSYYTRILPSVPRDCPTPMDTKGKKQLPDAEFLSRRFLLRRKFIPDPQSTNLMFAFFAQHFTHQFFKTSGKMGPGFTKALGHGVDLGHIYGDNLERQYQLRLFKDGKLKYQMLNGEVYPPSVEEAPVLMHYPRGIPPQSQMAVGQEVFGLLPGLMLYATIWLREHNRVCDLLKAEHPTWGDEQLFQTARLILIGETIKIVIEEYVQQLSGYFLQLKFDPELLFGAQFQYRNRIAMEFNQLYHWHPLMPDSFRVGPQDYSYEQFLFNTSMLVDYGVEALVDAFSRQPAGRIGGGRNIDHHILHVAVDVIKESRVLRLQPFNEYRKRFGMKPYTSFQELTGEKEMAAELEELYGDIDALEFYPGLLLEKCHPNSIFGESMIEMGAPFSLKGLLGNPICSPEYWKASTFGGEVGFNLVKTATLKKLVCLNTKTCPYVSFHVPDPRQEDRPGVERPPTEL
Test: COX (ovine) colorimetric inhibitor screening assay, COX-1
Format: biochemical
Conditions: selectivity index
Method: COX (ovine) Colorimetric Inhibitor Screening Assay (Cayman, Ann Arbor, MI, USA) was conducted to detect the peroxidase component of COX-1 and COX-2 according to the manufacturer’s instructions. The assay was performed in triplicate. Half maximal inhibitory concentration (IC50) data (µM) were expressed as mean ± SD.
parameter measured: SI (IC50 for COX-1/IC50 for COX-2)

Task item: If you can, please state the reported SI (IC50 for COX-1/IC50 for COX-2) value of O=C(Cc1c[nH]c2ccccc12)NNC(=S)Nc1ccc2c(c1)OCO2 .
Reply: >1.94

Task item: If you can, please state the reported SI (IC50 for COX-1/IC50 for COX-2) value of Cn1cc(C=NNC(=O)Cc2c[nH]c3ccccc23)c2ccccc21 .
Reply: <0.31

Task item: If you can, please state the reported SI (IC50 for COX-1/IC50 for COX-2) value of CN1CCN(c2ccc(C=NNC(=O)Cc3c[nH]c4ccccc34)cc2)CC1 .
Reply: <0.79

Task item: If you can, please state the reported SI (IC50 for COX-1/IC50 for COX-2) value of O=C(Cc1c[nH]c2ccccc12)NN=Cc1ccc(N2CCCC2)cc1 .
Reply: 0.83

Task item: If you can, please state the reported SI (IC50 for COX-1/IC50 for COX-2) value of N#Cc1ccc(NC(=S)NNC(=O)Cc2c[nH]c3ccccc23)cc1 .
Reply: >1.77
